Consider the following compounds and their measured TGI readings.
# Test system: OVCAR-5 ovarian
# Assay comment: NCI tumour cell line growth inhibition, 48 h
Your answer is read as µM, so omit the unit and give the number.

Record excerpt, results attached:
| Smiles structure | TGI (µM) |
| --- | --- |
| Oc1cccc(-c2ccc3c4c2O[C@H]2c5[nH]c6ccccc6c5C[C@@]5(O)[C@@H](C3)N(CC3CC3)CC[C@]425)c1 | 4.3 |
| O=C1C=CC(=O)c2c1cc([N+](=O)[O-])c1ccoc21 | 35.4 |
| COc1ccc(/C=N/N=C(\N)NO)c(Cl)c1O | 6.86 |

Now for a further compound.
Quick one: TGI for CCOC(=O)Cc1nc2ccccc2s1 ?
57
